Cited source for all entries: paper PMC4336329

So I've got a bunch of compounds here, and I need their hERG current change (%, negative = inhibition) at 10uM values.
target.desc: human ether-à-go-go-related gene (hERG) potassium channel (human, UniProt Q12809);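 further: peak tail current of the secondary pulse compared with the same well before compound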
Sequence (Q12809 whole entry, looked up): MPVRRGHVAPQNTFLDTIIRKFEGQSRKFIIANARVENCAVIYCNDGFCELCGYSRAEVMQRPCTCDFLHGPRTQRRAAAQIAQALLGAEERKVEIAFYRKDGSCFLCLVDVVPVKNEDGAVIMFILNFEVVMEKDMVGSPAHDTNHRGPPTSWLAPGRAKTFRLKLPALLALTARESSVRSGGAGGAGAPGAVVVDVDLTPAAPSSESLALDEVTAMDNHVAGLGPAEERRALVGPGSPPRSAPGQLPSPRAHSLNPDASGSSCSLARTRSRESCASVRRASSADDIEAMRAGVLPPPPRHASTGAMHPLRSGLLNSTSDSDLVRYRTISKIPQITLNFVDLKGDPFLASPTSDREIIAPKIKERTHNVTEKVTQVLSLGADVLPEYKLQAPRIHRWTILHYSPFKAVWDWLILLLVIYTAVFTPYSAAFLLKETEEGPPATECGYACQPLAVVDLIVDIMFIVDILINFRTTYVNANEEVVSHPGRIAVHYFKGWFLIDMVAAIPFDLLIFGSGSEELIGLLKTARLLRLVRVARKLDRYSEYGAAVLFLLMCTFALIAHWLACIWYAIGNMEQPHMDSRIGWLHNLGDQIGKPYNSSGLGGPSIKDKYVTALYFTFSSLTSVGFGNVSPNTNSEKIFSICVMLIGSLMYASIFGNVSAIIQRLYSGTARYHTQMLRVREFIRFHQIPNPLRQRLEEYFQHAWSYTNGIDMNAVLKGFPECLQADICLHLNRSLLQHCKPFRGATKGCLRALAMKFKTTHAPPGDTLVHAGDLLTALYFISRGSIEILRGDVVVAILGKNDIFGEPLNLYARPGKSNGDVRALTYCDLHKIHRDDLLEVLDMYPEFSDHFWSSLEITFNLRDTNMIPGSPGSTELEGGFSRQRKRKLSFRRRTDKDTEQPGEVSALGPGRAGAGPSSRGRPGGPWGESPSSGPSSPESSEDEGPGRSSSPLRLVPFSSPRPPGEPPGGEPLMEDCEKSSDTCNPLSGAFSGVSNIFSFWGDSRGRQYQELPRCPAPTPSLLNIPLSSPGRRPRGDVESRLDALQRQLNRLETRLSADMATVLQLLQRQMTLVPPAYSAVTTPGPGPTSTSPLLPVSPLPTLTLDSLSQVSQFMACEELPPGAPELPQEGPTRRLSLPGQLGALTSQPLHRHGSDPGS
assay.remarks: primary screen, population patch clamp on CHO cells stably expressing hERG; higher = less effect of the substance
About 14,000 (4.5%) of roughly 310,000 compounds showed an effect of 50% or more. The effect is printed as a negative number. This is one part of a sample in which strong results are shown more often than they occur.
Number plus unit, in that order.

Guide cases for hERG current change (%, negative = inhibition) at 10uM, answers given:
Cl.O[Si](CCCN1CCCCC1)(c1ccc(F)cc1)C1CCCCC1 (stereo not drawn): -54.3%
CN1CCN(c2ccccc2NC(=O)c2ccc(-c3cccc([N+](=O)[O-])c3)o2)CC1: -51.8%

Consider the following items and state reported hERG current change (%, negative = inhibition) at 10uM for each.
1. O=C(Nc1ccccc1N1CCOCC1)c1cccc([N+](=O)[O-])c1
2. CCC(C)C1(CC)C(=O)NC(=O)N=C1N (stereo not drawn)
3. COc1ccc(C2c3ccc4ccccc4c3Oc3ncn(CCO)c(=N)c32)cc1 (stereo not drawn)
4. COc1ccc(C2c3ccc4ccccc4c3Oc3ncn(CCO)c(=N)c32)cc1OC (stereo not drawn)

Reply |
1. -17.7%
2. 36.1%
3. -74.2%
4. -45.7%

====

target.desc: human ether-à-go-go-related gene (hERG) potassium channel (human);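 further: peak tail current of the secondary pulse compared with the same well before compound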
assay.remarks: primary screen, population patch clamp on CHO cells stably expressing hERG; higher = less effect of the substance
The campaign covered roughly 310,000 compounds. About 14,000 (4.5%) showed an effect of 50% or more. Effects have a minus sign here. The entries come from a sample that favours strong results as a whole.
Please go through the items and note down their hERG current change (%, negative = inhibition) at 10uM.
Numbers only, in %.

The following compounds have reported results that may help.
COc1ccccc1CNC(=O)CNC(=O)[C@@H]1Cc2ccccc2CN1: 1.14
C=CCn1c(N2CCN(c3ccc(OC)cc3)CC2)nc2c1c(=O)n(C)c(=O)n2C: -32.1

I need hERG current change (%, negative = inhibition) at 10uM for every entry listed below, if you could help.
1. CCN1CCN(Cc2cccc(Oc3ccccc3)c2)CC1
2. CN1CCN(Cc2cccc(Oc3ccc(Cl)cc3)c2)CC1
3. CCCN1C2CCCC1CC(NC(=O)NC1CCCCC1)C2 (stereo not shown)
4. COc1ccc(N2CCN(c3ccc(NC(=O)C4CCCCC4)cc3C#N)CC2)cc1
5. O=C(c1ccccc1)N1CCN(Cc2cccc(Oc3ccccc3)c2)CC1
6. O=C(CCc1ccccc1)NNC(=O)c1ccc(NC(=O)c2ccccc2)cc1
7. Cn1nnc2cc(C(=O)N3CCN(c4ccccc4)CC3)ccc21

Reply |
1: -35.9; 2: 1.98; 3: -12.4; 4: 15.2; 5: -50.1; 6: 2.53; 7: -3.95

Ask | Return hERG current change (%, negative = inhibition) at 10uM for the following compound: CCOc1ccc(NC(=O)CN(C)S(=O)(=O)c2ccc3c(c2)CCC(=O)N3)cc1
Reply | -41.3

====

target.desc: human ether-à-go-go-related gene (hERG) potassium channel (human, UniProt Q12809);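 further: peak tail current of the secondary pulse compared with the same well before compound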
assay.remarks: primary screen, population patch clamp on CHO cells stably expressing hERG; higher = less effect of the substance
In all, about 310,000 compounds went through this assay and about 14,000 (4.5%) showed an effect of 50% or more. Effects have a minus sign here. The entries come from a sample that favours strong results as a whole.
observation.type: hERG current change (%, negative = inhibition) at 10uM (%)
Give bare numbers, in %.

Required: hERG current change (%, negative = inhibition) at 10uM, one value per molecule below.
1. CN(C)CCCNC(=O)c1cc2sc3ccccc3c2s1.Cl
2. CCOC(=O)C1CCCN(Cc2nc(N)nc(Nc3ccccc3)n2)C1 (stereo not drawn)
3. O=S(=O)(O)c1cccc(N=Nc2c(O)ccc3ccccc23)c1
4. COc1ccccc1CNC(=O)c1cccs1
5. COn1c(-c2ccc(Cl)cc2Cl)nc2ncccc21
6. CCOC(=O)C1CCCN(Cc2ccccc2C)C1 (stereo not drawn)

Reply |
1: -64.7; 2: -71.2; 3: 16.4; 4: 3.82; 5: -1.12; 6: -15.1
